Exercise: for every item that follows, state its recorded IC50, ISRE assay.
Biological target: IFN-αG (human, UniProt P01569 24-189)
Experiment: cell-based or functional assay
Give a bare numeral; the unit pM is implied.

Would you mind telling me what IC50, ISRE assay value was observed for IFWM3399 (antibody, IgG1, V domains shown, mAb; IgG1/kappa said of the parent and of selected mAbs; also called IFWB3134) VH: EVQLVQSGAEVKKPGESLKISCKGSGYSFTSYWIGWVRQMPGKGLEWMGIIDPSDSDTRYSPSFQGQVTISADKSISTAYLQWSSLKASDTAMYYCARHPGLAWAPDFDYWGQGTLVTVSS VL: DIQMTQSPSSLSASVGDRVTITCRASQSIDGALNWYQQKPGKAPKLLIYFASSLQSGVPSRFSGSGSGTDFTLTISSLQPEDFATYYCQQAYDFPLTFGQGTKVEIK ? 29

# IC50, ISRE assay lookup, item IFWM3421 (antibody, IgG1, V domains shown) VH: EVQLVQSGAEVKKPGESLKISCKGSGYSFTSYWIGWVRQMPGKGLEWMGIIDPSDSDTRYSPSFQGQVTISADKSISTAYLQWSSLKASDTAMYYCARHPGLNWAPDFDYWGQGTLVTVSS VL: DIQMTQSPSSLSASVGDRVTITCRASQSIDGFLNWYQQKPGKAPKLLIYFASSLQSGVPSRFSGSGSGTDFTLTISSLQPEDFATYYCQQSYDLPITFGQGTKVEIK 18

# get_value(readout='IC50, ISRE assay', item= IFWM3320 (antibody, IgG1, V domains shown) VH: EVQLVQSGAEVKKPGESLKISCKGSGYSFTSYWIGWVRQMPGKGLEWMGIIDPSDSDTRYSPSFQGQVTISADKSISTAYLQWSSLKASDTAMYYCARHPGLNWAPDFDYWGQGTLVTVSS VL: DIQMTQSPSSLSASVGDRVTITCRASQSINGVLNWYQQKPGKAPKLLIYFASSLQSGVPSRFSGSGSGTDFTLTISSLQPEDFATYYCQQSHDFPLTFGQGTKVEIK ) 82

IC50, ISRE assay for IFWM3385 (antibody, IgG1, V domains shown, mAb; IgG1/kappa said of the parent and of selected mAbs; also called IFWB3120) VH: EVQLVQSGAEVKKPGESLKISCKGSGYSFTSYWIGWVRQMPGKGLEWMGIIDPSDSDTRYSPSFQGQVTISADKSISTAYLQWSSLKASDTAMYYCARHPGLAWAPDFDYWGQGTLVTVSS VL: DIQMTQSPSSLSASVGDRVTITCRASQSIGDFLNWYQQKPGKAPKLLIYFASSLQSGVPSRFSGSGSGTDFTLTISSLQPEDFATYYCQQALDFPLTFGQGTKVEIK ? 77

For IFWM3416 (antibody, IgG1, V domains shown, mAb; IgG1/kappa said of the parent and of selected mAbs; also called IFWB3151) VH: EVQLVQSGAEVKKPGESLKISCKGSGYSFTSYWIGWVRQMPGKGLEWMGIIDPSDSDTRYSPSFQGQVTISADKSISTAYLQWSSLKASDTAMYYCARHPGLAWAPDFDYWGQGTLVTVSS VL: DIQMTQSPSSLSASVGDRVTITCRASQSIRNTNLNWYQQKPGKAPKLLIHWASSLQSGVPSRFSGSGSGTDFTLTISSLQPEDFATYYCQQGYDTPFTFGQGTKVEIK , what is its reported IC50, ISRE assay? 49

Find the recorded IC50, ISRE assay belonging to IFWM3328 (antibody, IgG1, V domains shown) VH: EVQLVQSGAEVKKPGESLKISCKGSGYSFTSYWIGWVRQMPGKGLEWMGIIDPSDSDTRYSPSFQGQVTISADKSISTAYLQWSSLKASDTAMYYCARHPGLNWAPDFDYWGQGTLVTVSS VL: DIQMTQSPSSLSASVGDRVTITCRASQSINNLNWYQQKPGKAPKLLIYWASSLQSGVPSRFSGSGSGTDFTLTISSLQPEDFATYYCQQGYDTPFTFGQGTKVEIK and report it. 486

Query (binder): IFWM3310 (antibody, IgG1, V domains shown) VH: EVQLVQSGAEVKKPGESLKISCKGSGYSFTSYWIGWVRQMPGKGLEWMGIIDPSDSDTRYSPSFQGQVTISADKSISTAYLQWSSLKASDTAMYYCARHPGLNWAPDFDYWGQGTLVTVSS VL: DIQMTQSPSSLSASVGDRVTITCRASQSIGKSLNWYQQKPGKAPKLLIYFASSLQSGVPSRFSGSGSGTDFTLTISSLQPEDFATYYCQQSYDFPLTFGQGTKVEIK ; field requested: IC50, ISRE assay 73
